Overview of recorded melting temperature for various sequences
# Test system: HeLa Kyoto;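 note: HeLa Kyoto cells synchronized by double thymidine or nocodazole block, proteins quantified by TMT10plex mass spectrometry, three independent biological replicates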
# PROTOCOL_NOTES: melting temperature (median over replicates), in situ; higher = more thermally stable
# EXPERIMENTAL_CONTEXT: cell cycle stage: G1/S
Write it as a number; the unit °C goes unstated.

CHAIN	melting temperature (°C)
MATTAAPAGGARNGAGPEWGGFEENIQGGGSAVIDMENMDDTSGSSFEDMGELHQRLREEEVDADAADAAAAEEEDGEFLGMKGFKGQLSRQVADQMWQAGKRQASRAFSLYANIDILRPYFDVEPAQVRSRLLESMIPIKMVNFPQKIAGELYGPLMLVFTLVAILLHGMKTSDTIIREGTLMGTAIGTCFGYWLGVSSFIYFLAYLCNAQITMLQMLALLGYGLFGHCIVLFITYNIHLHALFYLFWLLVGGLSTLRMVAVLVSRTVGPTQRLLLCGTLAALHMLFLLYLHFAYHKVVEGILDTLEGPNIPPIQRVPRDIPAMLPAARLPTTVLNATAKAVAVTLQSH [YIPF3]	55.9

Attention now shifts to the item below.
Lab note: measured melting temperature of MPMYQVKPYHGGGAPLRVELPTCMYRLPNVHGRSYGPAPGAGHVQEESNLSLQALESRQDDILKRLYELKAAVDGLSKMIQTPDADLDVTNIIQADEPTTLTTNALDLNSVLGKDYGALKDIVINANPASPPLSLLVLHRLLCEHFRVLSTVHTHSSVKSVPENLLKCFGEQNKKQPRQDYQLGFTLIWKNVPKTQMKFSIQTMCPIEGEGNIARFLFSLFGQKHNAVNATLIDSWVDIAIFQLKEGSSKEKAAVFRSMNSALGKSPWLAGNELTVADVVLWSVLQQIGGCSVTVPANVQRWMRSCENLAPFNTALKLLK [AIMP2] was 48.9
